The reported numbers originate from paper PMC10447463.

- procedure summary: Aggregate analysis by widefield fluorescence microscopy
- Assay type: physicochemical
- details: Fig S8 panels A, C
property label: Avg Area in 3 *(1330 µm *1330 µm)

• CKFKFQFW [TM72] = 28.12
• RGDSGGGGGGKIKIQIC [TM114 / RC17] = 372.8
• HHHHKIKIQINMYYYY [TM16] = 97.09
• KIKIQIC [TM112 / CN11] = 23.45
• CKFKQFFNM [CK14] = 31.08
• KFKFQFNMWQ [JG4] = 599.2
• CKAKAQANMWQ [BL8] = 857.7
• CSISIQI [TM141] = 112.5
• CKIKQIINMWQ [MG5a / CK17] = 183.3

====

- Assay type: physicochemical
- details: ThT fluorescence relative to blank, blank = 42.1851851851852
Short version: Tht rel to blank (42.1851851851852) at least 3 is true, less is false.

• KAKQAANMWQ [JG6] = false
• RGEKIKIQINM [CN18] = true
• QCKFKQFFNM [CK11] = true
• HIHIQIC [CN12] = true
• RIRIQIC [PS07] = false
• QCKIKQIINM [CK5] = true
• HLHLPLL [CN14] = false
• HHHHKIKIKIKIYYYY [TM6] = true
• KIKIKIQI [TG13] = false
• KFKFQFF [TG6] = false
• KFKFQFFF [TG12] = false
• QCKIKQIINMWQ [reference compound] = true
• KVKVQVV [TG2] = false
• QCKFKQFFNMWQ [CK10] = true
• KIKQII [msis21] = false
• KLKLQLL [TG4 / (KM2)] = false

====

- procedure summary: Zeta-potential measurement
- Type: physicochemical
- details: zeta-potential of the peptide assemblies; mean; Figure 3A source data
Reported Zeta-Potential / mV values for the following substances.
property label: Zeta-Potential / mV (mV)

• HHHHKAKAKAKAYYYY = 7.03
• KIKIQI = -5.63
• QCKIKQII = 11
• KAKAQANM = -2.62
• HGEHGE = -12.6
• KIEIQINM = -0.35
• QCKIKQIINM = 10.4
• KIKQII = -12.67
• TKTLTKTL = -25.1
• CRFRFQF = -2.1
• MKFKFQF = -3.13
• CKYKYQY = 1.49
• NMWQKAKAQA = -5.56
• QCKIKIQI = 9.52
• KFKQFFNMWQ = -3.43
• NMWQKIKQII = -0.21
• KIKIKIQINMWQ = 13.1
• KIKIQIRGD = 6.43
• IKVAVKIKIQINM = 14.5
• HHHHKIKIKIKIYYYY = 13.2
• CKFKQFFNM = 15.2

====

- procedure summary: Turbidity, derived count rate of scattered light
- Assay type: physicochemical
- details: derived count rate of scattered light; mean, std deviation in next column
Short version: Zeta Count Rate / kcps at least 1000 kcps is true (1), less is false (0).

* KFKFQF [JJA6] | false (0)
* CKFKFQFNMW [KB14] | true (1)
* KIKQIINMWQ [JG2] | false (0)
* QCKIKIQINMWQ [EF-C opt] | true (1)
* CKAKAQA [TM155] | false (0)
* RGDCKIKIQINM [TM45] | true (1)
* CRFRVPF [CN8] | false (0)
* CEIEIQINMWQ [TM143] | true (1)
* RGDKIKIQI [MG14] | false (0)
* CEFEFQFNMWQ [TM140] | false (0)
* QCKFKFQF [CK9] | true (1)
* CEIEIQI [AR2/ TM142] | false (0)
* CHLHLQL [CN9] | true (1)
* CKIKQIINM [BL1] | true (1)
* CKYKYQY [KB2] | true (1)
* KAKAQANM [TM152] | false (0)
* CKIKIQINMWQ [MG1] | true (1)
* CKFKQFF [CK15] | false (0)
* QCKFKQFFNMWQ [CK10] | true (1)
* CKIKIQINM [MG2] | true (1)
* KIKIKIQINMWQ [VH9] | true (1)
* CEIEIQINM [TM144] | false (0)
* KFKFQFNMWQ [JG4] | false (0)
* MKFKFQF [DF5 / CK16] | false (0)
* HHHHKIKIKIKIYYYY [TM6] | true (1)
* KFKFKFQF [TG18] | true (1)
* CKFKFQFNMWQ [BL2] | false (0)
